- ASSAY PROCEDURE: in vitro
- CONDITIONS: rat, gh3-tre-luc cells, AC50 (uM) modified / 1000, Tox21_110001=Tox21_202017; viability, 1 nM T3 present, 24 h
ASSAY READOUT: CC50 at 24 h

Data request: Entry CCOC(=O)CC(SP(=O)(OC)OC)C(=O)OCC (stereo not shown) : reported CC50 at 24 h = ?
Data returned: > 90 µM

* * *

- ASSAY PROCEDURE: in vitro
- CONDITIONS: rat, gh3-tre-luc cells, AC50 (uM) modified / 1000, Tox21_110001=Tox21_110931; viability, 1 nM T3 present, 24 h
ASSAY READOUT: CC50 at 24 h

Data request: Quick one: CC50 at 24 h of `Cc1ncsc1CCCl` ?
Data returned: > 50 µM

Origin of values: paper PMC6792352
